Test system: PPARg:RXRa IVT, anti-PPARg (NR concentration 270 nM, RXRa partner concentration 90 nM)
Test: PBM binding z-score (relative to random genomic background probes); higher = stronger binding; sequences stand for … in GC…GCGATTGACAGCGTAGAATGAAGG

sequence-content: CTCGAAAGATCGTGCTCAGGTGAGTATACCAAAC
system-under-test: PPARg:RXRa IVT, anti-PPARg (NR concentration 270 nM, RXRa partner concentration 90 nM)
PBM binding z-score: -0.0174
//
sequence-content: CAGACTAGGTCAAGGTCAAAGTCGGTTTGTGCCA
system-under-test: PPARg:RXRa IVT, anti-PPARg (NR concentration 270 nM, RXRa partner concentration 90 nM)
PBM binding z-score: 7.9
//
sequence-content: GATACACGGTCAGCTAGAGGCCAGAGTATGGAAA
system-under-test: PPARg:RXRa IVT, anti-PPARg (NR concentration 270 nM, RXRa partner concentration 90 nM)
PBM binding z-score: 0.135
//
sequence-content: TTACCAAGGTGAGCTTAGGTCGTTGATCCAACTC
system-under-test: PPARg:RXRa IVT, anti-PPARg (NR concentration 270 nM, RXRa partner concentration 90 nM)
PBM binding z-score: 1.67
//
sequence-content: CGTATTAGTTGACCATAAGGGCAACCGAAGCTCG
system-under-test: PPARg:RXRa IVT, anti-PPARg (NR concentration 270 nM, RXRa partner concentration 90 nM)
PBM binding z-score: 0.784
//
sequence-content: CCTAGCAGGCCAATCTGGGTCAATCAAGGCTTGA
system-under-test: PPARg:RXRa IVT, anti-PPARg (NR concentration 270 nM, RXRa partner concentration 90 nM)
PBM binding z-score: 4.7
//
sequence-content: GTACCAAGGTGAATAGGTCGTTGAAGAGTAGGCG
system-under-test: PPARg:RXRa IVT, anti-PPARg (NR concentration 270 nM, RXRa partner concentration 90 nM)
PBM binding z-score: 2.92
//
sequence-content: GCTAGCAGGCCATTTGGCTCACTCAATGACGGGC
system-under-test: PPARg:RXRa IVT, anti-PPARg (NR concentration 270 nM, RXRa partner concentration 90 nM)
PBM binding z-score: -0.288
//
sequence-content: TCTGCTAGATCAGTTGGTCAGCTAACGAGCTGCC
system-under-test: PPARg:RXRa IVT, anti-PPARg (NR concentration 270 nM, RXRa partner concentration 90 nM)
PBM binding z-score: -0.283
//
sequence-content: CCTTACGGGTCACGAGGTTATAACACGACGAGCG
system-under-test: PPARg:RXRa IVT, anti-PPARg (NR concentration 270 nM, RXRa partner concentration 90 nM)
PBM binding z-score: 5.17
//
sequence-content: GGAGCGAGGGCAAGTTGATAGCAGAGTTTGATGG
system-under-test: PPARg:RXRa IVT, anti-PPARg (NR concentration 270 nM, RXRa partner concentration 90 nM)
PBM binding z-score: 0.346
//
sequence-content: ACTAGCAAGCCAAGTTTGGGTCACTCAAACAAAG
system-under-test: PPARg:RXRa IVT, anti-PPARg (NR concentration 270 nM, RXRa partner concentration 90 nM)
PBM binding z-score: 0.332
